Tested on: T-47D breast
Test: NCI-60 one-dose screen, 48 h
Settings: 10 µM unless noted
This is part of a sample that, as a whole, favours compounds with a hit. Of some 83,000 tested, about 20% had one in any assay. Calls of active or inactive are those of the source. Rule for the calls: active = growth percent below 10; inactive = the rest.
Outcomes: active, inactive

[
  {
    "compound-structure": "COc1ccc(C(=O)c2cc(OC)c(OC)c(OC)c2)cc1/C=C/C(=O)c1cc(OC)c(OC)c(OC)c1",
    "class-label": "inactive"
  },
  {
    "compound-structure": "CCN(CC)CCCCCCNc1ccnc2cc(Cl)ccc12",
    "class-label": "inactive"
  },
  {
    "compound-structure": "COc1ccccc1CNc1nc(N)nc2[nH]c3ccc(O)cc3c12",
    "class-label": "inactive"
  },
  {
    "compound-structure": "COc1cc(OC)c2c(c1)c1nc3cc(C)c(C)cc3nc1n2CCN(C)C",
    "class-label": "inactive"
  },
  {
    "compound-structure": "O=C(O)c1cccc2c1-c1ccc(Cl)cc1C2",
    "class-label": "inactive"
  },
  {
    "compound-structure": "CC(=O)O[C@H]1CC[C@@]2(C)C(=CC[C@@H]3[C@@H]2CC[C@]2(C)C(=O)N(O)C(=O)C[C@@H]32)C1",
    "class-label": "inactive"
  },
  {
    "compound-structure": "O=[N+]([O-])c1cccc(/C=N\\Nc2ccccc2)c1",
    "class-label": "inactive"
  },
  {
    "compound-structure": "CCc1nnc(NC(=O)c2ccoc2COc2ccccc2)s1",
    "class-label": "inactive"
  },
  {
    "compound-structure": "COC(=O)[C@]12CC[C@@H](C)[C@H](C)[C@@H]1C1=CC[C@@H]3[C@@]4(C)C[C@@H](OC(C)=O)[C@H](O)[C@@](C)(COC(C)=O)[C@@H]4[C@H](O)C[C@@]3(C)[C@]1(C)CC2",
    "class-label": "active"
  },
  {
    "compound-structure": "CN1CCN(c2ccc3nc(-c4[nH]ncc4Nc4ncnc5c4OCCCN5)[nH]c3c2)CC1",
    "class-label": "active"
  },
  {
    "compound-structure": "Cn1cc(-c2csc(-c3c[nH]c4ccc(F)cc34)n2)c2cccnc21",
    "class-label": "inactive"
  },
  {
    "compound-structure": "COc1cnc2c(c1)C(=O)c1c-2n(CCCNC(C)C)c(=O)c2cc([N+](=O)[O-])ccc12",
    "class-label": "active"
  },
  {
    "compound-structure": "Cc1ccc(-c2ccc(Nc3ccccc3)nn2)cc1S(N)(=O)=O",
    "class-label": "inactive"
  },
  {
    "compound-structure": "c1cc(N2CCCC2)c2nc(-c3[nH]ncc3Nc3ncnc4[nH]ccc34)[nH]c2c1",
    "class-label": "active"
  },
  {
    "compound-structure": "C=C(C)[C@@H]1CC[C@]2(C(=O)O)CC[C@]3(C)[C@H](CC[C@@H]4[C@@]5(C)C/C(=C/c6cccc(I)c6)C(=O)C(C)(C)[C@@H]5CC[C@]43C)[C@@H]12",
    "class-label": "active"
  },
  {
    "compound-structure": "Nc1c(C(=O)Nc2cccc(Br)c2)sc2nc3c(cc12)C(=O)CCC3",
    "class-label": "inactive"
  },
  {
    "compound-structure": "COc1cccc(-c2nn(-c3ccccc3)cc2-c2ccnc(NCCNS(=O)(=O)c3ccc(Cl)cc3)c2)c1",
    "class-label": "active"
  },
  {
    "compound-structure": "COc1ccc(OC)c(-c2c(C#N)c(-c3ccco3)nc3c2c(-c2ccccc2)nn3-c2ccccc2)c1",
    "class-label": "inactive"
  }
]
